Target Entity: Arginase-2, mitochondrial (Homo sapiens)
Sequence (whole entry): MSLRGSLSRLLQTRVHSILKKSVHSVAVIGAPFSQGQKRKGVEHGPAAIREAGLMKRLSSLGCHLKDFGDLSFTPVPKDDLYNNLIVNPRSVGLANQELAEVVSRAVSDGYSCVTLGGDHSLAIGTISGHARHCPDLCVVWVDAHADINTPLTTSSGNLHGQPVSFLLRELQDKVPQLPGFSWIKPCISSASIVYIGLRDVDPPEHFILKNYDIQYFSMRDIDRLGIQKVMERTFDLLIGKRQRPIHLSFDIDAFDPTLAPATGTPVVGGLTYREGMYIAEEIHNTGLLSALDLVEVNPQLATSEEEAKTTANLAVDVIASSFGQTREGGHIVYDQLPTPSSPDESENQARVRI
Assay Explanation: in vitro enzyme assay to detect the production of urea directly proportional to the activity of Arginase II
Assay type: functional
Design: scale not given: in the data most compounds retested in dose-response had high values
Condition Summary: 33.3 µM
Below, each of the compounds is paired with its reported Percent Effect value.
Property Name: Percent Effect (%)

>  <Compound>
CCN1CCN(Cc2coc(-c3cccc(F)c3)n2)CC1

>  <Number>
-0.356

$$$$
>  <Compound>
c1sc(C2CCCC2)nc1CN1CCn2c(nnc2C2CC2)C1

>  <Number>
-0.554

$$$$
>  <Compound>
COCC1CN(C(=O)c2cccn2C)Cc2nccn2C1 (centres undefined)

>  <Number>
1.63

$$$$
>  <Compound>
COc1cccc(OCc2cc(C(=O)NC[C@H]3CCCN3)n[nH]2)c1

>  <Number>
15.4

$$$$
>  <Compound>
O=C(Cn1c(=O)n(Cc2ccco2)c2ncccc21)Nc1ccccn1

>  <Number>
-4.41

$$$$
>  <Compound>
N#Cc1ccc(F)c(CN2CCCC2Cn2cccn2)c1 (centres undefined)

>  <Number>
-0.554

$$$$
>  <Compound>
CN(c1ccc(C(C)(C)C)cc1)S(=O)(=O)c1cc(C(=O)O)cs1

>  <Number>
2.4

$$$$
>  <Compound>
CN(Cc1ccncc1)C(=O)Nc1cnn(CC2CCCO2)c1 (centres undefined)

>  <Number>
0.952

$$$$
>  <Compound>
COc1c(CNCCNC(=O)c2ccc(C)cc2)c(C)nn1C

>  <Number>
-2.4

$$$$

Cited source: ChEMBL document CHEMBL3988442
